Target: T1, recombinant biotinylated CD71 extracellular domain (Sino Biologics) with an N-terminal 6His tag (human, UniProt P02786 89-760, biotinylated (sites not given))
T1 construct: extracellular domain; also called hCD71; huCD71
T1 sequence (P02786 other isoform, or with tags, fused parts or gaps): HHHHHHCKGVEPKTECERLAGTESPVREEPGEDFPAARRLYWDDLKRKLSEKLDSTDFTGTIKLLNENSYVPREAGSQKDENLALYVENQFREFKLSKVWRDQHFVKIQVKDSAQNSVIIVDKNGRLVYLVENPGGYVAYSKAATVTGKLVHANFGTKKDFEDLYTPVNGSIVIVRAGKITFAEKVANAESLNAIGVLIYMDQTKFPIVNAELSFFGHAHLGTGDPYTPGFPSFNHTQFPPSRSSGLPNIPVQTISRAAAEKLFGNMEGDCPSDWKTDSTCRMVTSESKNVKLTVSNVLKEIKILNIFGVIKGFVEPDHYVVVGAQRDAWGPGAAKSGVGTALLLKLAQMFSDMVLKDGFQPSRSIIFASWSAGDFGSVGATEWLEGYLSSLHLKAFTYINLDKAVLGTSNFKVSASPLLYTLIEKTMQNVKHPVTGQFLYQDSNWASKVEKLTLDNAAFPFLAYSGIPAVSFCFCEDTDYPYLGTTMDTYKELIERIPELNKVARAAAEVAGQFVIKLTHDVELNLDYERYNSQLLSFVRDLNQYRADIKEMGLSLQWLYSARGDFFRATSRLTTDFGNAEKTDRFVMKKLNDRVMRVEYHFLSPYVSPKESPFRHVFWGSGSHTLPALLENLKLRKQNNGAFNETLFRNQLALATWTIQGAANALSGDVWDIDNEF
Experiment: screening ELISA, ratio
parameter: hCD71:HSA

Observe how each entry below is paired with its result.
binder	parameter	numeric_result
SEQ ID NO 149 (designed binder, FN3 domain) MLPAPKNLVVSRVTEDSARLSWTAPDAAFDSFIIPYAEVRPDGEAIVLTVPGSERSYDLTGLKPGTEYSVLIHGVKGGKLSEPLSAIFTT	hCD71:HSA	826
SEQ ID NO 232 (designed binder, FN3 domain) MLPAPKNLVVSRVTEDSARLSWTAPDAAFDSFTIAYDETLNLGEAIVLTVPGSERSYDLTGLKPGTEYIVGIFGVKGGTHSWPLSAIFTT	hCD71:HSA	629

1 = SEQ ID NO 106 (designed binder, FN3 domain) MLPAPKNLVVSRVTEDSARLSWTAPDAAFDSFTIAYEEHGLVGEAIYLRVPGSERSYDLTGLKPGTEYHVGIMGVKGGVFSSPLSAIFTT
2 = SEQ ID NO 138 (designed binder, FN3 domain) MLPAPKNLVVSRVTEDSARLSWTAPDAAFDSFFIKYIEWWADGEAIVLTVPGSERSYDLTGLKPGTEYLVEIYGVKGGRQSYPLSAIFTT
Q: Looking at 1 and 2 , which one comes out lower in hCD71:HSA terms? Answer with the label corresponding to your selection.
Ans: 1
